Biological target: PAH103-428 (catalytic domain) (Homo sapiens, UniProt P00439)
Construct: made in house; host or cells: E. coli
Test: ANS-monitored thermal unfolding of PAH103-428
Type: binding
Settings: 100 μM compound, vs no ligand
Reported ΔT0.5 PAH103-428 values are given for each entry in this list.

| sample-smiles | result |
| --- | --- |
| Cc1ccnc(-n2c(=S)[nH]c3sc(C)c(C)c3c2=O)c1 | 1.2 °C |
| Cc1onc(-c2ccccc2)c1-c1n[nH]c(N)c1C#N | 4.3 °C |
| Cn1cnc([N+](=O)[O-])c1N1CCN(C(c2ccccc2)c2ccccc2)CC1 | 8.4 °C |

For the molecule "Nc1c(-c2ccc3ccccc3n2)c2ccc([N+](=O)[O-])cc2c(=O)n1Cc1ccccc1" , the measured ΔT0.5 PAH103-428 on PAH103-428 (catalytic domain) (Homo sapiens, UniProt P00439) was 10.1 °C

* * *

Target: wt-PAH (Homo sapiens, UniProt P00439)
Construct: made in house; host or cells: E. coli
Assay: Enzyme kinetic analysis of recombinant PAH activity
Assay type: biochemical
Settings: 100 μM compound; 75 μM BH4, L-Phe 0-1 mM; preincubated; mean ± S.E.
measurement-kind: Vmax, L-Phe (μmol L-Tyr/min·mg)
Write the answer as a number in μmol L-Tyr/min·mg, unit excluded.

| sample-smiles | Vmax, L-Phe [μmol L-Tyr/min·mg] |
| --- | --- |
| Cc1onc(-c2ccccc2)c1-c1n[nH]c(N)c1C#N | 3.02 |
| Cn1cnc([N+](=O)[O-])c1N1CCN(C(c2ccccc2)c2ccccc2)CC1 | 3.77 |
| Cc1ccnc(-n2c(=S)[nH]c3sc(C)c(C)c3c2=O)c1 | 2.43 |

Now turn to the next compound.
compound "Nc1c(-c2ccc3ccccc3n2)c2ccc([N+](=O)[O-])cc2c(=O)n1Cc1ccccc1" , Vmax, L-Phe observed: 3.57

* * *

Target: R68S-PAH (Homo sapiens, UniProt P00439, R68S)
Construct: made in house; host or cells: E. coli
Assay: ANS-monitored thermal unfolding of R68S-PAH
Assay type: binding
Conditions: 100 μM compound, vs no ligand
Reported ΔT0.5 PAHR68S values are given for each entry in this list.
Write the answer as a number in °C, unit excluded.

Answered cases to consult:
| sample-smiles | unit-string | ΔT0.5 PAHR68S |
| --- | --- | --- |
| Cn1cnc([N+](=O)[O-])c1N1CCN(C(c2ccccc2)c2ccccc2)CC1 | °C | 3.2 |
| Cc1onc(-c2ccccc2)c1-c1n[nH]c(N)c1C#N | °C | 1.1 |
| Cc1ccnc(-n2c(=S)[nH]c3sc(C)c(C)c3c2=O)c1 | °C | 1.6 |

Now turn to the next compound.
For the compound "Nc1c(-c2ccc3ccccc3n2)c2ccc([N+](=O)[O-])cc2c(=O)n1Cc1ccccc1" , the measured ΔT0.5 PAHR68S on R68S-PAH (Homo sapiens, UniProt P00439, R68S) was 8.2

* * *

Target: wt-PAH (Homo sapiens, UniProt P00439)
Construct: made in house; host or cells: E. coli
Assay: Enzyme kinetic analysis of recombinant PAH activity
Assay type: biochemical
Conditions: 100 μM compound; 1 mM L-Phe, BH4 0-200 μM; preincubated with L-Phe; mean ± S.E.
Reported Vmax, BH4, Preincubation values are given for each entry in this list.
Write the answer as a number in μmol L-Tyr/min·mg, unit excluded.

| compound | Vmax, BH4, Preincubation [μmol L-Tyr/min·mg] |
| --- | --- |
| Cc1ccnc(-n2c(=S)[nH]c3sc(C)c(C)c3c2=O)c1 [Compound 13] | 3.11 |
| Nc1c(-c2ccc3ccccc3n2)c2ccc([N+](=O)[O-])cc2c(=O)n1Cc1ccccc1 [Compound 11] | 2.87 |
| Cc1onc(-c2ccccc2)c1-c1n[nH]c(N)c1C#N [Compound 5] | 3.52 |

Now turn to the next compound.
compound Cn1cnc([N+](=O)[O-])c1N1CCN(C(c2ccccc2)c2ccccc2)CC1 [Compound 6] , Vmax, BH4, Preincubation observed: 2.96

* * *

Molecular target: wt-PAH (Homo sapiens)
Construct: made in house; host or cells: E. coli
Sequence (P00439 1-452): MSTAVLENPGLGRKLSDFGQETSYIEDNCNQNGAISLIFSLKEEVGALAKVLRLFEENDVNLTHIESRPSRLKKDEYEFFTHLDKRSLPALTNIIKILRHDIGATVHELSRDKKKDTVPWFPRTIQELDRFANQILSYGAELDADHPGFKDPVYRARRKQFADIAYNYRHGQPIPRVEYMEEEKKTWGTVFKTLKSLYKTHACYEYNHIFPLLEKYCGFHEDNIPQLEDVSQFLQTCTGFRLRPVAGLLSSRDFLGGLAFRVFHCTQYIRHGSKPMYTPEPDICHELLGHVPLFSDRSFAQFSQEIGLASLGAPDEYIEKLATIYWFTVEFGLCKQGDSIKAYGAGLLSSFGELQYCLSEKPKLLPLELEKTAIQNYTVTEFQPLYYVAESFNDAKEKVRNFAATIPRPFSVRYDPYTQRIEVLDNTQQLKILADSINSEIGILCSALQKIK
Experiment: Enzyme kinetic analysis of recombinant PAH activity
Assay type: biochemical
Conditions: 100 μM compound; 75 μM BH4, L-Phe 0-1 mM; preincubated; mean ± S.E.
Reported S0.5, L-Phe values are given for each entry in this list.
Write the answer as a number in µM, unit excluded.

Answered cases to consult:
| compound | target-or-system | unit-string | numeric-result |
| --- | --- | --- | --- |
| Cc1ccnc(-n2c(=S)[nH]c3sc(C)c(C)c3c2=O)c1 [Compound 13] | wt-PAH (Homo sapiens) | µM | 131 |
| Nc1c(-c2ccc3ccccc3n2)c2ccc([N+](=O)[O-])cc2c(=O)n1Cc1ccccc1 [Compound 11] | wt-PAH (Homo sapiens) | µM | 138 |
| Cc1onc(-c2ccccc2)c1-c1n[nH]c(N)c1C#N [Compound 5] | wt-PAH (Homo sapiens) | µM | 118 |

Now turn to the next compound.
compound Cn1cnc([N+](=O)[O-])c1N1CCN(C(c2ccccc2)c2ccccc2)CC1 [Compound 6] , S0.5, L-Phe observed: 156
